molecular target: Chitin synthase 3 (Saccharomyces cerevisiae (strain ATCC 204508 / S288c)); assay: Chitin Synthase Assays; conditions: pH 7.5; 25 °C
Sequence (P29465 whole entry): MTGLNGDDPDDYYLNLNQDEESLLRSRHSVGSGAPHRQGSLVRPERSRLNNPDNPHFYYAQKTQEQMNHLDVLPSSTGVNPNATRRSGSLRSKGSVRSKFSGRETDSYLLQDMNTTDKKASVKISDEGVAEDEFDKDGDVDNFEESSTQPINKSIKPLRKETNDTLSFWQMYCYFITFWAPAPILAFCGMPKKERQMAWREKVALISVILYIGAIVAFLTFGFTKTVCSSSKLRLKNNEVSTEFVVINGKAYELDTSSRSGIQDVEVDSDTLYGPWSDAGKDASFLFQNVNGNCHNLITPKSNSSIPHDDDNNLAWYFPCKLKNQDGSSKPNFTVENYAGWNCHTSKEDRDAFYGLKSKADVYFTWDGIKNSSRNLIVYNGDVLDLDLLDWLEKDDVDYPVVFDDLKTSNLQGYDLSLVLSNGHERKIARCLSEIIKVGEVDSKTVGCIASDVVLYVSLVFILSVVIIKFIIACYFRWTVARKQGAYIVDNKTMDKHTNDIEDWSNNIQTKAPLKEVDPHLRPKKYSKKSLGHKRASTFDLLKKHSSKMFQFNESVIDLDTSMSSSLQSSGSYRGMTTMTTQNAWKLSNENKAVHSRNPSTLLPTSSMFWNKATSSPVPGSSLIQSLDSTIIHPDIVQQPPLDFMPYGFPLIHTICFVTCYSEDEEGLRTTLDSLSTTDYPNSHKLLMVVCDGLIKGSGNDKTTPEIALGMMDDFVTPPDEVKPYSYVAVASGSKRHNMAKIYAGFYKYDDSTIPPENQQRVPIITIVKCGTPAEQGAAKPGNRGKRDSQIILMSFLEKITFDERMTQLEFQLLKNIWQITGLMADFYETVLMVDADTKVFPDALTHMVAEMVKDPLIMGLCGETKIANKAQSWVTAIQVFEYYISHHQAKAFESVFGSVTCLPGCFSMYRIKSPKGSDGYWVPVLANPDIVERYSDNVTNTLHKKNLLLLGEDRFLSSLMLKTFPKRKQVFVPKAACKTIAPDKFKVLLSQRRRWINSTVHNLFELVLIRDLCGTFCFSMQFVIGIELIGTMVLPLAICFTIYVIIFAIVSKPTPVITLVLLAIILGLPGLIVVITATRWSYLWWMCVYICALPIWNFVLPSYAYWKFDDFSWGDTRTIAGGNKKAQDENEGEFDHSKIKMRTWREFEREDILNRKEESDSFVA

compound	tested-system	IC50 / µM
O=C(CCC(=O)NCC(=O)NC[C@H]1O[C@@H](n2ccc(=O)[nH]c2=O)[C@@H](O)C1O)NCC(=O)NC[C@H]1O[C@@H](n2ccc(=O)[nH]c2=O)[C@@H](O)C1O (some centres not stated)	Chitin synthase 3 (Saccharomyces cerevisiae (strain ATCC 204508 / S288c))	3000
COC(=O)CCC(=O)NC[C@H]1O[C@@H](n2ccc(=O)[nH]c2=O)[C@@H](O)C1O (some centres not stated)	Chitin synthase 3 (Saccharomyces cerevisiae (strain ATCC 204508 / S288c))	800

The reported numbers originate from BindingDB's records for doi:10.1016/j.bioorg.2015.05.007.
